- system tested: mGluR5 receptor (Sus scrofa, UniProt I3LUI7)
- Construct: 450 μg of protein from brain homogenate are incubated with 5 nM^3[H]-MPEP; from tissue; host or cells: pig brain hemispheres without medulla, cerebellum and pons
- Sequence (I3LUI7 19-1212): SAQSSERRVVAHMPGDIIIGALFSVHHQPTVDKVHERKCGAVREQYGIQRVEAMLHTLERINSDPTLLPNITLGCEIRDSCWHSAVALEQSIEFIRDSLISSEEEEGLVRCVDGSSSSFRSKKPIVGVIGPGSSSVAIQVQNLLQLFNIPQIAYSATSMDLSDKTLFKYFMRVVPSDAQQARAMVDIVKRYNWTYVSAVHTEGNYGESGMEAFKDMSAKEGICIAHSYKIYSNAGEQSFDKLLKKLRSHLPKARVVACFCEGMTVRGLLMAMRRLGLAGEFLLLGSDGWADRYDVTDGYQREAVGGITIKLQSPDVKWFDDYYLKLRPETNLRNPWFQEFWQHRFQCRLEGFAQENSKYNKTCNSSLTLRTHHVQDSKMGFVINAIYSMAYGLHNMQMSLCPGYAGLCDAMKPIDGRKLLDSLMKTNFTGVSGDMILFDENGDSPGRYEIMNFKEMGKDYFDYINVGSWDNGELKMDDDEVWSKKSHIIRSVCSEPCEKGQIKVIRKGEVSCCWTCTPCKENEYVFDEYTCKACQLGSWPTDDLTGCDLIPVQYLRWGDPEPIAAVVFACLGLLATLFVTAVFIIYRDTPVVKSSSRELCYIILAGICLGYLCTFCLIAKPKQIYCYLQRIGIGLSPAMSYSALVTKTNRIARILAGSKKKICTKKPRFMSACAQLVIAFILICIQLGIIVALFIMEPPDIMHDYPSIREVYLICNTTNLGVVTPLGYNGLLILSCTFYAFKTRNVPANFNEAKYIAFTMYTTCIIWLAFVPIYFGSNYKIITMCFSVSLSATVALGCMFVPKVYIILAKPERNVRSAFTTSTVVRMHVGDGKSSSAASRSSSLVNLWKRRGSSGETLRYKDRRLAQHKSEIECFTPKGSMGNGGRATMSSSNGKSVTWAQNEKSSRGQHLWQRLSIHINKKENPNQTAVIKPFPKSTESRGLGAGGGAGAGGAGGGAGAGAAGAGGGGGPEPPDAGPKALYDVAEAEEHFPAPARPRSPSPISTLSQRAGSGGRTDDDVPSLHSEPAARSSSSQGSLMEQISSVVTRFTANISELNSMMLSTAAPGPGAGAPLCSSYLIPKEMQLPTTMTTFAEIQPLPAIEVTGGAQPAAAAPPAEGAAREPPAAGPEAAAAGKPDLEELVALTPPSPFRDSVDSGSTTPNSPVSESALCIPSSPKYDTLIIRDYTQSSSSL
- method description: Affinity for the mGluR5 receptor: displacement of 3[H]-MPEP binding in pig brain homogenate
- run parameters: 10 μM compound, 5 nM 3[H]-MPEP
endpoint name: inhibition at 10 µM (%)

1. O=C(Nc1noc2c(F)cccc12)c1ccc(F)cc1
2. Cc1ccc2onc(NC(=O)c3ccccc3)c2c1
[Q] Please state the entry with greater inhibition at 10 µM among 1 and 2 . State your choice using its label.
[A] 2

I. CCC(C)C(=O)Nc1noc2cccc(OCC(F)(F)F)c12 (stereo not drawn)
II. O=C(Nc1noc2cccc(F)c12)c1ccc(Cl)cc1
III. CC(C)(C)CC(=O)Nc1noc2cccc(Cl)c12
[Q] Arrange by inhibition at 10 µM, high to low. A ranking is expressed here by listing the labels in the requested order.
[A] II, III, I

###

- system tested: 5-HT uptake (serotonin reuptake) (Rattus norvegicus, UniProt P31652)
- Construct: from tissue; host or cells: rat medulla and pons synaptosomes (P2 fraction)
- Sequence (P31652 whole entry): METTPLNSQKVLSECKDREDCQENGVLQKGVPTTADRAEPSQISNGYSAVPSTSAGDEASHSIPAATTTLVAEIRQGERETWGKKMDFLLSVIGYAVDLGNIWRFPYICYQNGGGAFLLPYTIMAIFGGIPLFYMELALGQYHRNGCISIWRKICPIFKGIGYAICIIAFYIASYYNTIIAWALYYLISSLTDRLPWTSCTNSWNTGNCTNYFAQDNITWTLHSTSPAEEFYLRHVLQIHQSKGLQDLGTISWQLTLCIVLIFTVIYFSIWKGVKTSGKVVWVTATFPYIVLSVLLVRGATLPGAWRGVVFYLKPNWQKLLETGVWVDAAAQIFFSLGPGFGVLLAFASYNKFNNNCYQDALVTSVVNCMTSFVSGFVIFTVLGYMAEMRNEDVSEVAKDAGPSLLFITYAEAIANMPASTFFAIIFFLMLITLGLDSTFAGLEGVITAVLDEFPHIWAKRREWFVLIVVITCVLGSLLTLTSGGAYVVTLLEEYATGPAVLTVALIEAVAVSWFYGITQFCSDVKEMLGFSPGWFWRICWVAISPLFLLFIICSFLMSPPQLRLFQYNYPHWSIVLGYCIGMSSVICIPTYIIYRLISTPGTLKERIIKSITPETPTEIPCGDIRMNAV
- method description: 5HT uptake inhibition in rat brain synaptosomes (medulla and pons), [3H]-5-HT
- Format: biochemical
- run parameters: conc. 10 μM
endpoint name: inhibition at 10 µM (%)

COc1ccccc1C(=O)Nc1noc2cc(Br)ccc12 [Example 22] = 79
CN(C)c1cccc2onc(NC(=O)c3cc(C(F)(F)F)cc(C(F)(F)F)c3)c12 [Example 35] = 86
O=C(Nc1noc2ccc(F)cc12)c1ccccc1C(F)(F)F [Example 26] = 82
O=C(Nc1noc2ccc(Br)cc12)c1cc(C(F)(F)F)ccc1F [Example 29] = 83
CN(C)c1cccc2onc(NC(=O)c3cccc(F)c3)c12 [Example 16] = 72
O=C(Nc1noc2ccc(Br)cc12)c1ccc(F)cc1F [Example 30] = 79
COc1ccccc1C(=O)Nc1noc2cccc(OCC(F)(F)F)c12 [Example 39] = 82
CC(C)(C)c1ccc(C(=O)Nc2noc3cc(Br)ccc23)cc1 [Example 21] = 81
O=C(Nc1noc2ccc(F)cc12)c1ccc(Cl)c(Cl)c1 [Example 27] = 89
COc1cccc2onc(NC(=O)c3cc(F)cc(F)c3)c12 [Example 34] = 78
O=C(Nc1noc2ccccc12)c1cccc(F)c1F [Example 15] = 86
Cc1ccc2onc(NC(=O)c3ccccc3C(F)(F)F)c2c1 [Example 31] = 69
Cc1ccc2onc(NC(=O)c3cccc(F)c3)c2c1 [Example 32] = 89
CCC(C)C(=O)Nc1noc2cc(F)ccc12 (centres unmarked) [Example 18] = 70
O=C(Nc1noc2cccc(OCC(F)(F)F)c12)c1cccc(Cl)c1 [Example 37] = 90
O=C(Nc1noc2cccc(OCC(F)(F)F)c12)c1ccccc1Br [Example 36] = 84
O=C(Nc1noc2ccccc12)c1ccc(Cl)c(Cl)c1 [Example 14] = 69
COc1cccc(C(=O)Nc2noc3cc(Cl)ccc23)c1 [Example 20] = 77
Cc1ccccc1C(=O)Nc1noc2ccc(F)cc12 [Example 28] = 91
CC(C)(C)c1ccc(C(=O)Nc2noc3cccc(OCC(F)(F)F)c23)cc1 [Example 38] = 77

###

- system tested: 5-HT uptake (serotonin reuptake) (Rattus norvegicus)
- Construct: from tissue; host or cells: rat medulla and pons synaptosomes (P2 fraction)
- method description: 5HT uptake inhibition in rat brain synaptosomes (medulla and pons), [3H]-5-HT
- Format: biochemical
- run parameters: conc. 10 μM
endpoint name: inhibition at 10 µM (%)

O=C(Nc1noc2ccccc12)c1ccccc1C(F)(F)F [Example 13] = 84
O=C(Nc1noc2cc(Cl)ccc12)c1cccc(C(F)(F)F)c1F [Example 19] = 77
CCC(C)C(=O)Nc1noc2cc(Br)ccc12 (stereo not drawn) [Example 25] = 86

Data origin, for the record: patent US20080312301A1
